PROTOCOL_DETAILS: physchem
CONDITION_SUMMARY: pH 7.4, RP-HPLC log Po/w
RECORDED_ENDPOINT: chromatographic logP

(a) Cc1c(C(=O)NCc2ccc(Br)cc2)[n+]([O-])c2cc(Cl)c(Cl)cc2[n+]1[O-] [Compound 21]
(b) Cc1c(C(=O)NCCc2ccccc2)[n+]([O-])c2cc(Cl)ccc2[n+]1[O-] [Compound 16]
Query block: Which has the smaller recorded chromatographic logP, a or b ? I would appreciate it if you answered with the label of your choice.
Result block: b
(b: 2.38, a: 3.78)

---

PROTOCOL_DETAILS: RP-HPLC determination of capacity factors and log Po/w (Supelcosil LC-ABZ, MOPS buffer pH 7.4/methanol)
CONDITION_SUMMARY: 50% methanol, MOPS buffer pH 7.4
RECORDED_ENDPOINT: Capacity factors log k’50

(P) Cc1c(C(=O)NCCc2ccccc2)[n+]([O-])c2ccccc2[n+]1[O-] [Compound 14]
(Q) Cc1c(C(=O)NCc2ccc(Br)cc2)[n+]([O-])c2cc(Cl)c(Cl)cc2[n+]1[O-] [Compound 21]
Query block: Which shows the larger Capacity factors log k’50 value: P or Q ? I would appreciate it if you answered with the label of your choice.
Result block: Q
(Q: 1.15, P: 0.05)

(A) Cc1c(C(=O)NCCc2ccccc2)[n+]([O-])c2cc(Cl)ccc2[n+]1[O-] [Compound 16]
(B) Cc1c(C(=O)NCc2ccccc2)[n+]([O-])c2ccccc2[n+]1[O-] [Compound 10]
Query block: Which shows the larger Capacity factors log k’50 value: A or B ? I would appreciate it if you answered with the label of your choice.
Result block: A

---

PROTOCOL_DETAILS: RP-HPLC determination of capacity factors and log Po/w (Supelcosil LC-ABZ, MOPS buffer pH 7.4/methanol)
CONDITION_SUMMARY: reference compounds; from log k’0 by Equation (1)
RECORDED_ENDPOINT: RP-HPLC log Po/w

[
  {
    "MOLECULE": "CC(=O)c1ccccc1 [Compound 4, Acetophenone, reference compound]",
    "RP-HPLC log Po/w": 1.54
  },
  {
    "MOLECULE": "c1ccccc1 [Compound 5, Benzene, reference compound]",
    "RP-HPLC log Po/w": 2.14
  },
  {
    "MOLECULE": "Clc1ccccc1 [Compound 6, Chlorobenzene, reference compound]",
    "RP-HPLC log Po/w": 2.89
  },
  {
    "MOLECULE": "Nc1ccccc1 [Compound 2, Aniline, reference compound]",
    "RP-HPLC log Po/w": 0.94
  },
  {
    "MOLECULE": "CCC(C)=O [Compound 1, 2-Butanone, reference compound]",
    "RP-HPLC log Po/w": 0.21
  }
]

(I) c1ccc2ccccc2c1 [Compound 8, Naphthalene, reference compound]
(II) CC(=O)Nc1ccccc1 [Compound 3, Acetanilide, reference compound]
Query block: Which shows the larger RP-HPLC log Po/w value: I or II ? I would appreciate it if you answered with the label of your choice.
Result block: I
(I: 3.42, II: 1.15)

---

PROTOCOL_DETAILS: RP-HPLC determination of capacity factors and log Po/w (Supelcosil LC-ABZ, MOPS buffer pH 7.4/methanol)
CONDITION_SUMMARY: 50% methanol, MOPS buffer pH 7.4
RECORDED_ENDPOINT: Capacity factors log k’50

These solved cases illustrate the format of a correct answer.
[
  {
    "MOLECULE_SMILES": "Cc1c(C(=O)NCC(c2ccccc2)c2ccccc2)[n+]([O-])c2cc(Cl)ccc2[n+]1[O-]",
    "OBSERVED_RESULT": 0.91
  },
  {
    "MOLECULE_SMILES": "Cc1ccc2c(c1)[n+]([O-])c(C(=O)NCCc1ccccc1)c(C)[n+]2[O-]",
    "OBSERVED_RESULT": 0.21
  }
]

(a) Cc1ccc2c(c1)[n+]([O-])c(C(=O)NCc1ccccc1)c(C)[n+]2[O-]
(b) Cc1ccc(CNC(=O)c2c(C)[n+]([O-])c3ccc(Cl)cc3[n+]2[O-])cc1
Query block: Which shows the larger Capacity factors log k’50 value: a or b ? I would appreciate it if you answered with the label of your choice.
Result block: b

(a) Cc1ccc(CNC(=O)c2c(C)[n+]([O-])c3ccc(C)cc3[n+]2[O-])cc1
(b) Cc1c(C(=O)NCc2ccccc2)[n+]([O-])c2cc(Cl)c(Cl)cc2[n+]1[O-]
Query block: Which shows the larger Capacity factors log k’50 value: a or b ? I would appreciate it if you answered with the label of your choice.
Result block: b
(b: 0.66, a: 0.34)

---

PROTOCOL_DETAILS: RP-HPLC determination of capacity factors and log Po/w (Supelcosil LC-ABZ, MOPS buffer pH 7.4/methanol)
CONDITION_SUMMARY: 50% methanol, MOPS buffer pH 7.4
RECORDED_ENDPOINT: Capacity factors log k’50

These solved cases illustrate the format of a correct answer.
[
  {
    "COMPOUND": "Cc1ccc2c(c1)[n+]([O-])c(C(=O)NCc1ccc(Br)cc1)c(C)[n+]2[O-] [Compound 19]",
    "OBSERVED_RESULT": 0.60
  },
  {
    "COMPOUND": "Cc1c(C(=O)NCc2ccc(Br)cc2)[n+]([O-])c2cc(Cl)ccc2[n+]1[O-] [Compound 20]",
    "OBSERVED_RESULT": 0.84
  }
]

(1) Cc1c(C(=O)NCc2ccc(Br)cc2)[n+]([O-])c2ccccc2[n+]1[O-] [Compound 18]
(2) Cc1ccc2c(c1)[n+]([O-])c(C(=O)NCC(c1ccccc1)c1ccccc1)c(C)[n+]2[O-] [Compound 27]
Query block: Which shows the larger Capacity factors log k’50 value: 1 or 2 ? I would appreciate it if you answered with the label of your choice.
Result block: 2
(2: 0.80, 1: 0.48)

---

PROTOCOL_DETAILS: RP-HPLC determination of capacity factors and log Po/w (Supelcosil LC-ABZ, MOPS buffer pH 7.4/methanol)
CONDITION_SUMMARY: 70% methanol, MOPS buffer pH 7.4
RECORDED_ENDPOINT: Capacity factors log k’70

[
  {
    "MOLECULE_SMILES": "Cc1c(C(=O)NCCc2ccccc2)[n+]([O-])c2cc(Cl)ccc2[n+]1[O-]",
    "OBSERVED_RESULT": "−0.37"
  }
]

(a) Cc1ccc(CNC(=O)c2c(C)[n+]([O-])c3ccccc3[n+]2[O-])cc1
(b) Cc1ccc2c(c1)[n+]([O-])c(C(=O)NCc1ccc(Br)cc1)c(C)[n+]2[O-]
(c) Cc1c(C(=O)NCc2ccccc2)[n+]([O-])c2cc(Cl)c(Cl)cc2[n+]1[O-]
Query block: Order the 3 compounds from highest to lowest Capacity factors log k’70. Output spec: a listing of the labels in the requested order.
Result block: c, b, a
(c: −0.11, b: −0.16, a: −0.44)

---

PROTOCOL_DETAILS: RP-HPLC determination of capacity factors and log Po/w (Supelcosil LC-ABZ, MOPS buffer pH 7.4/methanol)
CONDITION_SUMMARY: reference compounds; capacity factor extrapolated to 0% methanol, pH 7.4
Procedure: The RP-HPLC methods of Minick and Lombardo [53] were considered for estimating the n-octanol/water partition coefficients (log Po/w) of QdO. […] The other chromatographic conditions were: flow 1.0 mL/min^−1; isocratic elution, UV-visible detector set at the wavelength with maximum absorbance (260 and 210 nm). […] The capacity factors were calculated according to Equation (2): […] The robustness of the model and its predictivity were evaluated by the leave-one-out (LOO) cross-validation procedure. […]
RECORDED_ENDPOINT: log k’0

These solved cases illustrate the format of a correct answer.
[
  {
    "COMPOUND": "c1ccc2ccccc2c1 [Compound 8, Naphthalene, reference compound]",
    "log k’0": 3.15
  },
  {
    "COMPOUND": "Brc1ccccc1 [Compound 7, Bromobenzene, reference compound]",
    "log k’0": 2.84
  }
]

(a) CC(=O)Nc1ccccc1 [Compound 3, Acetanilide, reference compound]
(b) CC(=O)c1ccccc1 [Compound 4, Acetophenone, reference compound]
Query block: Which has the smaller recorded log k’0, a or b ? I would appreciate it if you answered with the label of your choice.
Result block: a

---

PROTOCOL_DETAILS: RP-HPLC determination of capacity factors and log Po/w (Supelcosil LC-ABZ, MOPS buffer pH 7.4/methanol)
CONDITION_SUMMARY: 60% methanol, MOPS buffer pH 7.4
RECORDED_ENDPOINT: Capacity factors log k’60

These solved cases illustrate the format of a correct answer.
[
  {
    "COMPOUND": "Cc1c(C(=O)NCc2ccccc2)[n+]([O-])c2ccccc2[n+]1[O-] [Compound 10]",
    "RECORDED_ENDPOINT": "Capacity factors log k’60",
    "OBSERVED_RESULT": "−0.34"
  },
  {
    "COMPOUND": "Cc1ccc(CNC(=O)c2c(C)[n+]([O-])c3cc(Cl)c(Cl)cc3[n+]2[O-])cc1 [Compound 25]",
    "RECORDED_ENDPOINT": "Capacity factors log k’60",
    "OBSERVED_RESULT": 0.54
  },
  {
    "COMPOUND": "Cc1c(C(=O)NCc2ccccc2)[n+]([O-])c2cc(Cl)ccc2[n+]1[O-] [Compound 12]",
    "RECORDED_ENDPOINT": "Capacity factors log k’60",
    "OBSERVED_RESULT": "−0.05"
  }
]

(a) Cc1c(C(=O)NCCc2ccccc2)[n+]([O-])c2cc(Cl)c(Cl)cc2[n+]1[O-] [Compound 17]
(b) Cc1ccc2c(c1)[n+]([O-])c(C(=O)NCc1ccccc1)c(C)[n+]2[O-] [Compound 11]
Query block: Which shows the larger Capacity factors log k’60 value: a or b ? I would appreciate it if you answered with the label of your choice.
Result block: a
(a: 0.34, b: −0.24)

(P) Cc1c(C(=O)NCc2ccccc2)[n+]([O-])c2cc(Cl)c(Cl)cc2[n+]1[O-] [Compound 13]
(Q) Cc1c(C(=O)NCc2ccc(Br)cc2)[n+]([O-])c2cc(Cl)c(Cl)cc2[n+]1[O-] [Compound 21]
Query block: Which shows the larger Capacity factors log k’60 value: P or Q ? I would appreciate it if you answered with the label of your choice.
Result block: Q
